test system: OVCAR-5 ovarian; test: NCI tumour cell line growth inhibition, 48 h
Listed here are compounds together with their documented TGI.

Provide OVCAR-5 ovarian TGI reading for NC(N)=N/N=C/c1c(-c2ccc(Cl)c([N+](=O)[O-])c2)nc2n1CCS2 .
27.8 µM

Now look at this one.
Tell me TGI of CC1(C)[C@@H]2CC[C@@]1(C)[C@H](O)[C@@H]2SCc1ccccc1 when tested on OVCAR-5 ovarian.
33.1 µM

---

Parameter TGI: see the listing below.
system: PC-3 prostate; experiment: NCI tumour cell line growth inhibition, 48 h

Send back PC-3 prostate TGI of O=S1(=O)OCCOS(=O)(=O)C1Cc1nc2ccccc2[nH]1 only.
73.4 µM

Answer briefly: TGI recorded on PC-3 prostate for COC(=O)/C=C/c1ccc2c(c1)CC1(Cc3ccccc3C1)C2
> 100 µM

Check PC-3 prostate data and give TGI for [N-]=[N+]=C(C(=O)C(=[N+]=[N-])C(=O)c1ccccc1)C(=O)c1ccccc1 .
> 100 µM

Provide TGI, recorded with PC-3 prostate, of COc1ccc(C2ONC3=NCCN32)cc1 (stereo not given)
> 100 µM

Now consider a different compound.
Quote TGI with test system PC-3 prostate for COC(=O)c1c(OC)cc2cc3c(c(O)c2c1C)C(=O)C1(O)C(=O)C=C(OC)C(OC(=O)CC(C)N)=C1C3=O (stereo not given)
> 100 µM

---

Let's look at some compounds and their measured TGI.
tested on: RXF 393 renal; assay: NCI tumour cell line growth inhibition, 48 h
Entry rule: numbers only, all in µM.

Retrieve TGI on RXF 393 renal; query O=[N+]([O-])/C=C/c1cn(CCCCCn2cc(/C=C/[N+](=O)[O-])c3ccccc32)c2ccccc12
1.35

Write TGI of CC(C)=CCC[C@@H](C)c1c2[nH]c3ccccc3sc-2c(C)c(=O)c1=O ; system used: RXF 393 renal
32.7

Fill in: TGI on RXF 393 renal, entry CCOCNc1ccc(N2C(=O)/C(=C/c3ccc(N(CC)CC)cc3)N=C2c2ccccc2)cc1
17.4

Tell me TGI of CC(C)(C)CC(C)(C)c1ccc(OCCOCC[N+](C)(C)Cc2ccccc2)cc1 when tested on RXF 393 renal.
10.3

Name the value of TGI reported for Cc1cc([N+](=O)[O-])c(S(=O)(=O)c2ccccc2)c([N+](=O)[O-])c1 when tested on RXF 393 renal.
4.8

Please report the measured TGI for C=C(CNCCc1ccc(O)cc1)[C@@H]1CC[C@]2(CO)CC[C@]3(C)[C@H](CC[C@@H]4[C@@]5(C)CCC(N)C(C)(C)[C@@H]5CC[C@]43C)[C@@H]12 (stereo not given in full) tested on RXF 393 renal.
2.36

Check RXF 393 renal data and give TGI for COc1cc(-n2cc(-c3cc(O)c(C/C=C(\C)CCC=C(C)C)c(O)c3)nn2)cc2c1O[C@]1(C)CC[C@@H](O)C(C)(C)[C@H]1C2 .
0.337

Please tell me the measured TGI for NC(=O)C1=CC2C3C=CC2(O)C(=O)OC3O1 (stereo not given) ; system: RXF 393 renal.
8.23

Look up RXF 393 renal data: TGI of CC/C(Cl)=N\OC(=O)Nc1ccc(F)cc1F , then report it.
27.7

These measurements were taken from PubChem BioAssay (NCI).
